All figures here come from ChEMBL document CHEMBL1152100.

Please respond with reported Relative activity for every item in the list.
- target.entity: Alpha-(1,3)-fucosyltransferase 10 (Homo sapiens) (UniProt Q6P4F1)
- Sequence (Q6P4F1 whole entry): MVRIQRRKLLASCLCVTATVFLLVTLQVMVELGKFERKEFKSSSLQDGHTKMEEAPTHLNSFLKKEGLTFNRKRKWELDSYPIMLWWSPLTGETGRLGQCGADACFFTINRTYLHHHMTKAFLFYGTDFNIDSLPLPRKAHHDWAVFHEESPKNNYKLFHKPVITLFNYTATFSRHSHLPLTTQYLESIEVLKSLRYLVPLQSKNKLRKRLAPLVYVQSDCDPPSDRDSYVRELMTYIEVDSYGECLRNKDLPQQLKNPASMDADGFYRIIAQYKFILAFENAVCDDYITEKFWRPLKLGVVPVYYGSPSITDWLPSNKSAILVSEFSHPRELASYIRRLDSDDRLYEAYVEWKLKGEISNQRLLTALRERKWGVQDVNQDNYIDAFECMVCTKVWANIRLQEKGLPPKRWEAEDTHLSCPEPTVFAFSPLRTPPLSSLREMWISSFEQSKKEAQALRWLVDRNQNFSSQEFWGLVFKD
- method.description: Acceptor substrate specificity toward Fucosyltransferase for the galactosides of GlcNAc with beta 1,3 or beta 1,4-linkages
Answers are plain numbers.

These solved cases illustrate the format of a correct answer.
# molecule, Relative activity
data = [
    ("CC(=O)N[C@@H]1[C@H](O[C@H]2[C@H](O)[C@H](NC(C)=O)C(O)O[C@H]2CO)O[C@@H](CO)[C@@H](O)[C@@H]1O (stereo partly drawn)", 23),
    ("OC[C@@H]1OC(O)[C@@H](O)[C@H](O)[C@@H]1O (stereo partly drawn)", 7),
    ("CC(=O)N[C@@H]1[C@H](OC[C@@H]2O[C@@H](O[C@H]3[C@H](O)[C@H](O)C(O)O[C@H]3CO)[C@@H](O)[C@@H](O)[C@H]2O)O[C@@H](CO)[C@@H](O)[C@@H]1O (stereo partly drawn)", 13),
]

# map each molecule to its Relative activity
1. CC(=O)N[C@H]1C(O)O[C@H](CO)[C@H](O)[C@@H]1O (stereo partly drawn)
2. CC(=O)N[C@H]1C(O)O[C@H](CO)[C@@H](O)[C@@H]1O (stereo partly drawn)
3. OC[C@H]1S[C@H](O)[C@H](O)[C@@H](O)[C@@H]1O
4. C[C@@H]1O[C@@H](O[C@@H]2[C@H](O[C@H]3[C@H](O)[C@H](O)[C@@H](O)O[C@H]3CO)O[C@@H](CO)[C@H](O)[C@@H]2O)[C@@H](O)[C@@H](O)[C@@H]1O
5. OC[C@H]1OC=C[C@@H](O)[C@@H]1O

1: 4; 2: 3; 3: 7; 4: 250; 5: 7

====

- target.entity: Alpha-(1,3)-fucosyltransferase 10 (Homo sapiens) (UniProt Q6P4F1)
- method.description: Acceptor substrate specificity toward Fucosyltransferase for the galactosides of GlcNAc with beta 1,3 or beta 1,4-linkages
quantity.name: Relative activity
Answers are plain numbers.

These solved cases illustrate the format of a correct answer.
# compound, Relative activity
rows = [
    ("CC(=O)N[C@H]1[C@@H](O[C@@H]2O[C@@H](CO)[C@H](O)[C@H](O)[C@@H]2O)[C@H](O)[C@H](CO)O[C@H]1O", 580),
    ("OC[C@@H]1OC(O)[C@@H](O)[C@H](O)[C@H]1O (stereo not given in full)", 3),
    ("OC[C@H]1OC(O)[C@H](O)[C@@H](O)[C@@H]1O (stereo not given in full)", 5),
]

Would you kindly look at the next entry?
Entry under test: CC(=O)N[C@H]1[C@H]([C@H](O)[C@H](O)CO)O[C@@](O[C@@H]2[C@H](O)[C@H](O[C@H]3[C@H](O)[C@H](NC(C)=O)C(O)O[C@H]3CO)O[C@@H](CO)[C@@H]2O)(C(=O)O)C[C@H]1O (stereo not given in full) . Its Relative activity was 60
